Below, each of the molecules is paired with its reported melting point value.

Inquiry: Annotate the molecule Cc1nn(-c2ccccc2)nc1C(=O)NNC(=N)C(Cl)(Cl)Cl with its measured melting point.
Reply text: 197 to 198 °C

Inquiry: Annotate the molecule CC(=CNNc1nc(C)cc(C)n1)c1ccncc1 with its measured melting point.
Reply text: 214 to 216 °C

Inquiry: Annotate the molecule c1ccc2c(c1)OCCOCCOCCOCCOc1ccccc1OCCO2 with its measured melting point.
Reply text: 48 to 52 °C

====

Measure: melting point

Record excerpt, results attached:
Structure Notation: COc1cc(I)c(OC)cc1I
Result: 171 to 173 °C
--
Structure Notation: COc1nn(-c2ccccc2)cc1/C=C/C=O
Result: 131 to 133 °C
--
Structure Notation: N#Cc1ccc(OC2CCOCC2)cc1
Result: 109 to 112 °C
--
Structure Notation: c1cc2ccc3cccc4ccc(c1)c2c34
Result: 153 °C
--
Structure Notation: O=C(CN1CCNCC1)N1CCCC1
Result: 75 to 76 °C
--
Structure Notation: Brc1ccc(OC2CCOCC2)nc1
Result: 96 to 98 °C

Inquiry: Annotate the compound COc1ccc(C(=CC(=O)N2CCOCC2)c2ccc(F)cc2)cc1OC with its measured melting point.
Reply text: 108 °C

Inquiry: Annotate the compound Cc1cc(C(=O)CC#N)c(C)o1 with its measured melting point.
Reply text: 120 to 122 °C

====

Below, each of the compounds is paired with its reported melting point value.

Compound: CCCC1(O)CCC2C3CCC4CC(OC(C)=O)CCC4(C)C3CCC21C (stereo not given)
melting point: 120 to 121 °C

We now examine a further compound.
Inquiry: Annotate the compound Cc1sc2c(c1C)C(=O)CS(=O)(=O)N2C with its measured melting point.
Reply text: 122 to 124 °C

====

Below, each of the molecules is paired with its reported melting point value.

Structure Notation: Cc1ccc(C)c(C(=O)CC(C)(C)C(=O)O)c1
melting point: 118 to 119 °C
//
Structure Notation: Cc1nn(C)c2sc(CO)cc12
melting point: 133 to 135 °C

We now examine a further molecule.
Inquiry: Annotate the molecule CS(=O)(=O)Nc1cccc(C=O)c1 with its measured melting point.
Reply text: 146 to 147 °C

====

Below, each of the molecules is paired with its reported melting point value.

Record excerpt, results attached:
Molecule: O=C(O)C1(c2cccc(F)c2)CCCC1
melting point: 149 to 153 °C

Molecule: CCOC(=O)c1c(C)n(O)c2ccc3nonc3c12
melting point: 229 to 231 °C

Molecule: CC1=CC[C@@H]2[C@@H]3CCC4CC(=O)CC[C@]4(C)[C@H]3CC[C@]12C (some centres not stated)
melting point: 140 to 141 °C

Molecule: CC(C)[C@@H]1COC(=O)N1
melting point: 70 to 73 °C

Molecule: Nc1nnc(Br)s1
melting point: 168 to 169 °C

Molecule: CCOC(=O)c1c[nH]c2c(OC(F)(F)F)cccc2c1=O
melting point: 235 to 240 °C

Inquiry: Annotate the molecule Nc1nnc(C2CC2)[nH]1 with its measured melting point.
Reply text: 128 to 130 °C

====

Below, each of the molecules is paired with its reported melting point value.

Inquiry: Annotate the molecule COC(=O)c1ccc(C=CC(=O)c2ccccc2)cc1 with its measured melting point.
Reply text: 119 to 120 °C

Inquiry: Annotate the molecule Cc1ncc(CO)c(CO)c1O with its measured melting point.
Reply text: 160 °C

Inquiry: Annotate the molecule N#Cc1c(N)cccc1Cl with its measured melting point.
Reply text: 135 to 137 °C

Inquiry: Annotate the molecule COc1ccc(C(N)=S)cc1[N+](=O)[O-] with its measured melting point.
Reply text: 191 to 192 °C

Inquiry: Annotate the molecule COC(=O)c1ccc(N)c(Br)c1 with its measured melting point.
Reply text: 104 to 108 °C

Inquiry: Annotate the molecule CCC(C)c1cc([N+](=O)[O-])cc([N+](=O)[O-])c1OC(=O)OC(C)C (centres undefined) with its measured melting point.
Reply text: 61.5 °C

Inquiry: Annotate the molecule OCC(c1ccccc1)c1ccccc1 with its measured melting point.
Reply text: 64.5 °C

Inquiry: Annotate the molecule CC1=C(O)C(=O)C2OC2C1=O (centres undefined) with its measured melting point.
Reply text: 127 °C

Inquiry: Annotate the molecule Nc1ccc2c(c1)C(=O)c1ccc(N)cc1C2=O with its measured melting point.
Reply text: 325 °C

Inquiry: Annotate the molecule C/C=C/CCCCCCCC with its measured melting point.
Reply text: -48.3 °C

Inquiry: Annotate the molecule O=Cc1ccc(-n2cccn2)cc1 with its measured melting point.
Reply text: 82 to 83 °C

Inquiry: Annotate the molecule Cc1cc(C)n(N=Cc2ccc(F)cc2)c(=O)c1C#N with its measured melting point.
Reply text: 186 to 188 °C

Inquiry: Annotate the molecule COC(=O)[C@H](CC(=O)O)Cc1cccc2ccccc12 with its measured melting point.
Reply text: 113 °C

====

Peptide text beside a SMILES is read from it.
Measure: melting point

Record excerpt, results attached:
Compound: O=C(O)c1cccc(C(=O)O)n1
melting point: 248 to 250 °C
//
Compound: Cn1cncc1C(=O)NN
melting point: 186 to 187 °C

We now examine a further compound.
Inquiry: Annotate the compound NCC(=O)N[C@@H](CCC(=O)O)C(=O)O (H-Gly-Glu-OH) with its measured melting point.
Reply text: 155 to 158 °C

====

Below, each of the compounds is paired with its reported melting point value.

Record excerpt, results attached:
Compound: c1ccc2c(c1)CC1(OCCO1)c1ccccc1CC21OCCO1
melting point: 143 to 144 °C
//
Compound: COc1ccc(C(=O)O)cc1OC1CCCC1
melting point: 164 to 166 °C
//
Compound: CC12CCC(C(=Cc3ccccc3)C1=O)C2(C)C (centres undefined)
melting point: 97 °C
//
Compound: O=C(CCl)Nc1ccc(F)c(Cl)c1
melting point: 96 to 98 °C
//
Compound: O=C(O)/C=C/c1ccc(F)cc1F
melting point: 214 to 218 °C
//
Compound: OCc1cccnc1N1CCCC1
melting point: 74 to 76 °C

Inquiry: Annotate the compound C#CCC1(CC#C)C(=O)OC(C)(C)OC1=O with its measured melting point.
Reply text: 135 to 137 °C

Inquiry: Annotate the compound COC(=O)c1cc(C)c(S(=O)(=O)Cl)s1 with its measured melting point.
Reply text: 40 to 41 °C

Inquiry: Annotate the compound CC1(C)C=[N+]([O-])C(C)(C)N1O with its measured melting point.
Reply text: 160 to 163 °C

====

Measure: melting point

Record excerpt, results attached:
Compound: O=[N+]([O-])C=Cc1cccc([N+](=O)[O-])c1
melting point: 126 °C
--
Compound: CCc1ccc(C(N)=O)cc1
melting point: 163 °C
--
Compound: C1CC12CC2
melting point: -135 °C
--
Compound: O=C(NC(Cc1cccs1)C(=O)O)OCC1c2ccccc2-c2ccccc21 (stereo not drawn)
melting point: 169 °C
--
Compound: O=[N+]([O-])c1ccc2nc(C(Cl)(Cl)Cl)[nH]c2c1
melting point: 210 to 212 °C
--
Compound: N#CCCNC1CCCCC1
melting point: 122 to 124 °C

Inquiry: Annotate the compound OCC1Cc2ccccc2N1 (stereo not drawn) with its measured melting point.
Reply text: 49 to 58 °C

Inquiry: Annotate the compound Cc1nc(-c2ccccc2)sc1N=C=O with its measured melting point.
Reply text: 82 to 83 °C

Inquiry: Annotate the compound O=C(O)c1ccccc1OP(=O)(O)O with its measured melting point.
Reply text: 168 °C

Inquiry: Annotate the compound OCc1cc2cccnc2s1 with its measured melting point.
Reply text: 47 to 49 °C

Inquiry: Annotate the compound CC(=O)Oc1c(C)c(C)c2c(c1C)CCC(C)(CCCC(C)CCCC(C)CCCC(C)C)O2 (stereo not drawn) with its measured melting point.
Reply text: -28 °C

Inquiry: Annotate the compound COC(=O)c1ccc[nH]1 with its measured melting point.
Reply text: 73 to 75 °C

Inquiry: Annotate the compound COC(=O)c1ccc(-c2cccs2)nc1 with its measured melting point.
Reply text: 117 to 118 °C

====

Below, each of the compounds is paired with its reported melting point value.

Compound: CC(=O)NC(C)c1ccccc1 (stereo not given)
Measure: melting point
Result: 102 to 103 °C

Compound: Cc1ccc(S(=O)(=O)OCCCCCCOS(=O)(=O)c2ccc(C)cc2)cc1
Measure: melting point
Result: 70.5 to 73 °C

Compound: N#CCc1nc(-c2ccccc2)cs1
Measure: melting point
Result: 59 to 60 °C

Compound: CCOP(=O)(OCC)Oc1c2cccc1Cc1cccc(c1O)Cc1cccc(c1OP(=O)(OCC)OCC)Cc1cccc(c1O)C2
Measure: melting point
Result: 219 to 224 °C

Compound: N#Cc1ccc([N+](=O)[O-])cc1Cl
Measure: melting point
Result: 83 to 84 °C

Compound: CC(C)(C)OC(=O)N1CCN(c2ccc(CN)cc2)CC1
Measure: melting point
Result: 83 to 87 °C

Compound: CC(=O)NCC(=O)O
Measure: melting point
Result: 207 to 209 °C

Compound: O=C(Oc1ccc(Cl)cc1)c1c(Cl)c(Cl)c(C(=O)Oc2ccc(Cl)cc2)c(Cl)c1Cl
Measure: melting point
Result: 244 °C

Compound: CCSC(SCC)=C1CCCC(=C(SCC)SCC)C1=C(C#N)C#N
Measure: melting point
Result: 100 to 102 °C

Compound: COc1ccc(-c2nnc3n2NC(c2ccc(Cl)cc2)S3)cc1 (stereo not given)
Measure: melting point
Result: 160 °C

Inquiry: Annotate the compound Cc1c(NC(=O)C(C(F)(F)F)C(F)(F)F)c(=O)n(-c2ccccc2)n1C with its measured melting point.
Reply text: 237 to 239 °C

Inquiry: Annotate the compound CC1=CC1 with its measured melting point.
Reply text: -100 °C

Inquiry: Annotate the compound Clc1cncc(Cl)c1Cl with its measured melting point.
Reply text: 72 °C

Inquiry: Annotate the compound CCC(O)(CC)C(=O)O with its measured melting point.
Reply text: 78 to 82 °C

Inquiry: Annotate the compound CN1CCOc2cc(C#N)cnc21 with its measured melting point.
Reply text: 107 to 109 °C
